- targetOrTestSystem: Hu-thrombin (Homo sapiens, UniProt P00734)
reportedProperty: IC50

Q. Please report the recorded IC50 for Cc1cccc([N+](=O)[O-])c1-c1ccc(C=C2C(=O)N(c3ccccc3)C(=S)N(c3ccccc3)C2=O)o1 [ucf-101] .
A. > 500 µM

----------
- targetOrTestSystem: UniProt:P00760
- Sequence (P00760 24-246): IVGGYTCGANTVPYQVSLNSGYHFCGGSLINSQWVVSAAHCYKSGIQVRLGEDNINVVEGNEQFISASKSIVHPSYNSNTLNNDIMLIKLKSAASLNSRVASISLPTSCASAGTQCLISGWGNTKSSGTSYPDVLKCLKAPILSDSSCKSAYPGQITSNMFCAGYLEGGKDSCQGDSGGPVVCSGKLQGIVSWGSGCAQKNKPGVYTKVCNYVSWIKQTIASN
pIC50: −log10 of the molar value.
reportedProperty: pIC50

Q. Data request, read-out pIC50, for Cc1cccc([N+](=O)[O-])c1-c1ccc(C=C2C(=O)N(c3ccccc3)C(=S)N(c3ccccc3)C2=O)o1
A. < 3.30

----------
- targetOrTestSystem: His-Omi-134-458 (Homo sapiens, UniProt O43464)
- Sequence (O43464 134-458): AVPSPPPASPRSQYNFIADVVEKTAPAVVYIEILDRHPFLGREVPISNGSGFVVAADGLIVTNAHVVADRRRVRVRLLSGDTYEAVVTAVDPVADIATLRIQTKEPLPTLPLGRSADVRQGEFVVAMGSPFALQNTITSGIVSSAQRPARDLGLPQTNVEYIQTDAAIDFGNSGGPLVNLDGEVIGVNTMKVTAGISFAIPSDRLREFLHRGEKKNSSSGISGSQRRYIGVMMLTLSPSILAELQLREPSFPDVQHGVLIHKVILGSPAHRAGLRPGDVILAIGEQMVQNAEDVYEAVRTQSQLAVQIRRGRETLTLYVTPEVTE
reportedProperty: pIC50
Reminder that pIC50 is minus the log10 of a molar concentration.

Q. What measured pIC50 is associated with Cc1cccc([N+](=O)[O-])c1-c1ccc(C=C2C(=O)N(c3ccccc3)C(=S)N(c3ccccc3)C2=O)o1 [ucf-101] on His-Omi-134-458 (Homo sapiens, UniProt O43464)?
A. 5.02
